TARGET_OR_TEST_SYSTEM: BgaC β-galactosidase (BAD_1582) (Bifidobacterium adolescentis, UniProt A1A3T0)
Sequence (A1A3T0 whole entry): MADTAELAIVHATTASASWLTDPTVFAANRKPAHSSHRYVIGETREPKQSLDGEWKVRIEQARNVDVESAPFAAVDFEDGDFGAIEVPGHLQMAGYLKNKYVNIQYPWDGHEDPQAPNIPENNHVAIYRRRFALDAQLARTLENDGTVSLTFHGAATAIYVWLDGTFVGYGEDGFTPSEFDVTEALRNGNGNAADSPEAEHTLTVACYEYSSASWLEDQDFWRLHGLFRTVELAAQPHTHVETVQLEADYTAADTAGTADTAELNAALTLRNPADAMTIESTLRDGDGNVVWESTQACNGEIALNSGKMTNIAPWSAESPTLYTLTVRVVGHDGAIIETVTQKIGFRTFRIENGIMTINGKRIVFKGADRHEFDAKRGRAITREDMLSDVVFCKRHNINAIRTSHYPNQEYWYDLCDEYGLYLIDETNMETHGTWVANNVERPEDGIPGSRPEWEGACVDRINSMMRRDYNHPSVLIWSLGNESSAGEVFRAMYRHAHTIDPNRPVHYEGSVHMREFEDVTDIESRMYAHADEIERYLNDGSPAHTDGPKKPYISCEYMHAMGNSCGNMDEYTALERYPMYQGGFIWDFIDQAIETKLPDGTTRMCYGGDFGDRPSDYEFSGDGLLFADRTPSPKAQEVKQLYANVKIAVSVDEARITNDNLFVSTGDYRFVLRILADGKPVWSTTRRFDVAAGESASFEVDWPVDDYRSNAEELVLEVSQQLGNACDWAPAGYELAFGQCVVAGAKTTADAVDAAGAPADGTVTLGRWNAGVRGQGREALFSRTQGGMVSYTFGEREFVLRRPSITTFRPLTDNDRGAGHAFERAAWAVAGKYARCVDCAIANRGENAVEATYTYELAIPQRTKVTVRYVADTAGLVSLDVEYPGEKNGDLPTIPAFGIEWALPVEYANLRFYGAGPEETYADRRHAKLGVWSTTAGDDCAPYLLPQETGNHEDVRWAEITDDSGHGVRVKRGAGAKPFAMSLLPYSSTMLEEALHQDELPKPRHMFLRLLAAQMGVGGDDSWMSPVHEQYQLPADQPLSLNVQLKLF
MEASURED_ENDPOINT: pKi
Here pKi is given on a logarithmic scale as minus log10 of the concentration in mol/L.

Q: Returns the measured pKi for the input molecule. Input: OC[C@H]1O[C@@H](O[C@H]2[C@H](O)[C@@H](O)C(O)O[C@@H]2CO)[C@H](O)[C@@H](O)[C@H]1O (stereo partly shown)
Ans: 4.00
